- System: Plasmodium berghei
- method.notes: Luciferase/luciferin-expressing antifolate-resistant parasites were used to infect a culture of HepG2 cells that were pre-incubated with compounds. Infected hepatocytes emit light due to the luciferase reaction. Assay results are presented as the percent inhibition of light emission compared to control. […]
- Type: functional
- applied.conditions: sporozoite, FFLUC_HILL_SLOPE 16.3, FFLUC_R_SQUARED 0.284, PBLUC_HILL_SLOPE 3.54, PBLUC_R_SQUARED 0.756, read-out: LUCIFERASE INFECTION ASSAY - IC50
pIC50: −log10 of the molar value.
property.label: pIC50

{"columns": ["structure.notation", "measured.on", "observed"],
 "data": [
  ["CC(C)c1cccc(C(C)C)c1NC(=O)COc1ccc(CCO)cc1-n1nc2ccccc2n1", "Plasmodium berghei", 5.43]
]}

* * *

- Test system: Plasmodium berghei
- method.notes: Luciferase/luciferin-expressing antifolate-resistant parasites were used to infect a culture of HepG2 cells that were pre-incubated with compounds. Infected hepatocytes emit light due to the luciferase reaction. Assay results are presented as the percent inhibition of light emission compared to control. […]
- Format: functional
- applied.conditions: sporozoite, read-out: LUCIFERASE INFECTION ASSAY - IC50
pIC50: −log10 of the molar value.

{"columns": ["molecule", "measured.on", "pIC50"],
 "data": [
  ["C=CCNC(=S)N/N=C/C1=C(N2CCOCC2)C(=C/c2ccc(Cl)cc2Cl)/CC1", "Plasmodium berghei", "< 5.00"],
  ["CC(C)Cn1c(=O)n(C)c(=O)c2c(SCC#N)nc(CC(C)(C)C)nc21", "Plasmodium berghei", "< 5.00"],
  ["COC(=O)c1sccc1Oc1ccc(C(F)(F)F)cc1NC(=S)Nc1cc(Cl)cc(Cl)c1", "Plasmodium berghei", "< 5.20"],
  ["Clc1ccccc1COc1ccccc1CNCc1cccnc1", "Plasmodium berghei", "< 5.01"],
  ["COc1cccc(CC(=O)Nc2nc3ccc(C)cn3c2C(=O)NC2CCCC2)c1", "Plasmodium berghei", "< 5.09"],
  ["NNC(=O)c1cc2ccc3ccccc3c2s1", "Plasmodium berghei", "< 4.87"],
  ["COc1cc(NC(=O)COC(=O)CNC(=O)C2CCCCC2)cc(OC)c1", "Plasmodium berghei", "< 5.00"],
  ["Cc1sc2ncnc(Sc3ccccc3C(=O)NNc3c(Cl)cc(Cl)cc3Cl)c2c1C", "Plasmodium berghei", "< 5.00"],
  ["O=C(Cc1nc(C23CC4CC(CC(C4)C2)C3)cs1)NCc1ccccc1", "Plasmodium berghei", "< 5.00"],
  ["C/C(=N\\NC(=O)c1ccc(N/N=C(\\C)c2ccccc2Br)cc1)c1ccccc1Br", "Plasmodium berghei", "< 5.00"],
  ["CC(C)c1cccc(Nc2ccc3nnc(C(F)(F)F)n3n2)c1", "Plasmodium berghei", "< 5.00"],
  ["Clc1ccc(N/N=C/c2sccc2Oc2ccccc2)cc1", "Plasmodium berghei", "< 5.00"],
  ["O=C(Cc1ccccc1)NCC(=O)N1CCOC(c2ccccc2)C1 (centres undefined)", "Plasmodium berghei", "< 5.00"],
  ["COc1cccc(/C=C/C(=O)Nc2nc3c(s2)CN(C(=O)OC(C)(C)C)CC3)c1", "Plasmodium berghei", 6.41],
  ["Nc1ccccc1C(=O)Nc1cc(C(F)(F)F)cc(C(F)(F)F)c1", "Plasmodium berghei", "< 5.02"],
  ["CC(C)Cn1c(SC2CCOC2=O)nc2cc(Cl)ccc2c1=O (centres undefined)", "Plasmodium berghei", "< 5.00"],
  ["COc1cccc(CC(=O)N2CCCC(C(=O)NCC3CC3)C2)c1 (centres undefined)", "Plasmodium berghei", "< 5.00"],
  ["O=C(O)CCCNC(=O)CCn1nnc2ccccc2c1=O", "Plasmodium berghei", "< 4.97"],
  ["COCC(C)n1c(C)cc(C(=O)COC(=O)[C@@H]2CCCN2C(=O)c2cccs2)c1C (some centres undefined)", "Plasmodium berghei", "< 5.00"],
  ["Cn1nc(C(C)(C)C)cc1NC(=O)Nc1cc(Cl)cc(Cl)c1", "Plasmodium berghei", "< 5.01"],
  ["CCCc1ccc(-c2nc(NC(=O)CCc3ccsc3)sc2C)cc1", "Plasmodium berghei", "< 5.00"],
  ["N#CCCC(C#N)(c1ccc(F)cc1)c1cccc(F)c1C#N (centres undefined)", "Plasmodium berghei", "< 4.97"],
  ["CCSc1nc2scc(C(F)(F)F)n2c(=O)c1C(=O)N1CC(C)CC(C)C1 (centres undefined)", "Plasmodium berghei", "< 5.10"],
  ["COc1cccc(-c2cc(=O)n(-c3ccc(F)cc3)[nH]2)c1", "Plasmodium berghei", "< 4.94"],
  ["O=C(Nc1ccc(-c2csc(N3CCOCC3)n2)cc1)c1cccc(F)c1", "Plasmodium berghei", "< 5.00"],
  ["Cc1nn(-c2ccccc2)c(C)c1CC(=O)Nc1ccc2c(c1)OC(F)(F)O2", "Plasmodium berghei", "< 5.00"],
  ["CC(C)(C)C(=O)COC(=O)c1ccc(-c2ccc(O)cc2)cc1", "Plasmodium berghei", "< 5.00"],
  ["O=C1N(CN2CCCCC2)c2ccc(Br)cc2C12OCCO2", "Plasmodium berghei", "< 5.05"],
  ["CN(C)CCNS(=O)(=O)c1ccc(Cl)c([N+](=O)[O-])c1", "Plasmodium berghei", "< 5.00"],
  ["O=c1c2c(-c3ccccc3)csc2nc2c3ccccc3c(Cl)nn12", "Plasmodium berghei", "< 5.00"],
  ["COc1cccc(-c2nc3ccc(NC(=O)Nc4cccc(C(C)=O)c4)cn3n2)c1", "Plasmodium berghei", "< 5.00"],
  ["C=S(=O)(NS(=O)(=O)c1ccc(-c2cc(C(F)(F)F)n(C)n2)s1)c1ccc(Cl)cc1 (centres undefined)", "Plasmodium berghei", "< 5.17"],
  ["Cc1ccc(-c2csc(NCSc3cccc4cccnc34)n2)cc1", "Plasmodium berghei", "< 5.00"],
  ["Cc1n[nH]c(=S)n1C1CCCCC1", "Plasmodium berghei", "< 5.00"],
  ["Cc1cc(-c2ccc(Cl)cc2)nc2c1c(C)nn2CCO", "Plasmodium berghei", 5.39],
  ["COc1ccc(/C=C/C(=O)N2CCCC2c2cccs2)cc1S(=O)(=O)N1CCCCC1 (centres undefined)", "Plasmodium berghei", "< 5.00"],
  ["CCCNC(=O)C1(C)CCN(CCCC(=O)c2ccc(C)c(C)c2)C1 (centres undefined)", "Plasmodium berghei", "< 5.02"],
  ["O=C(Cc1cc(Cl)c2c(c1)OCCCO2)NCc1ccco1", "Plasmodium berghei", 5.20],
  ["O=C(Cc1cc(Cl)c2c(c1)OCCO2)NC(c1ccccc1)c1cccs1 (centres undefined)", "Plasmodium berghei", "< 5.00"],
  ["CCOCCCn1c(SCc2nc(-c3cccs3)oc2C)nc2sc(C)c(C)c2c1=O", "Plasmodium berghei", "< 5.00"],
  ["Cc1c(/C=N/NC(=O)c2ccccc2)c(Cl)n(C)c(=O)c1C#N", "Plasmodium berghei", "< 5.00"],
  ["CCOC(=O)/C(=N\\Nc1cc(C(F)(F)F)ccc1Cl)N1CCN(C(c2ccccc2)c2ccccc2)CC1", "Plasmodium berghei", 5.30],
  ["O=C(NC1CCCC1)c1ccc(-c2cn3c(-c4ccc5ncccc5c4)cnc3cn2)cc1", "Plasmodium berghei", "< 5.12"],
  ["C/N=c1\\scc(-c2cc3ccccc3o2)n1/N=C/c1cccc(O)c1O", "Plasmodium berghei", "< 5.00"]
]}
